Test system: UACC-62
Assay: Cytotoxicity against human UACC62 cells
Format: functional
experimental-endpoint: GI50 (µM)
Just the number please, in µM, no unit attached.

Note GI50 for the compound shown: `COc1cc2c3c(n(CCCN)c(=O)c2cc1OC)-c1ccc(N)cc1C3=O` 1.38

Answer with the recorded GI50 for the compound listed here: `COc1cc2c3c(n(CCCN=[N+]=[N-])c(=O)c2cc1OC)-c1ccc(F)cc1C3=O` 5.25

Dear colleague, please send me the reported GI50 for `O=C1c2cc(F)ccc2-c2c1c1ccc([N+](=O)[O-])cc1c(=O)n2CCCBr` when you can. 2.29

Return GI50 for the following compound: `COC(=O)c1ccc2c(c1)C(=O)c1c-2n(CCCCl)c(=O)c2cc([N+](=O)[O-])ccc12` 27.5

Check the records and state GI50 for `COc1cc2c3c(n(C)c(=O)c2cc1OC)-c1cc2c(cc1C3=O)OCO2` 4.2

Source: ChEMBL document CHEMBL1148751
